Test system: A498 renal
TEST PROTOCOL: NCI tumour cell line growth inhibition, 48 h
// values below are reported GI50

{"columns": ["MOLECULE", "GI50"],
 "data": [
  ["NC(N)=NS(=O)(=O)c1ccc(Nc2c3ccccc3nc3c(C(=O)NCCO)cccc23)cc1", "13.6 µM"],
  ["Fc1[nH]nc2ccc([C@@H]3Nc4ccc5[nH]ncc5c4[C@H]4C5CCC(C5)[C@@H]34)cc12 (some centres undefined)", "0.536 µM"],
  ["O=C(Nc1ccc(-n2ccc3c(NC(=O)c4ccccc4)nccc32)cc1)c1ccc(Cl)c(C(F)(F)F)c1", "6.1 µM"]
]}

Alright, here's another molecule for you.
Please look at this molecule and report its GI50: C=CC(=O)Nc1cc(Nc2ncc(C(=O)OC(C)C)c(-c3cn(C)c4ccccc34)n2)c(OC)cc1N(C)CCN(C)C
0.483 µM

----------
Test system: A498 renal
TEST PROTOCOL: NCI tumour cell line growth inhibition, 48 h
// values below are reported TGI
Note: unit µM is implicit; provide only the numeric part.

Please look at this molecule and report its TGI: C[C@@H]1CC[C@]2(C(=O)O)CC[C@]3(C)C(=CC[C@@H]4[C@@]5(C)CC[C@H](O)C(C)(C)[C@@H]5CC[C@]43C)[C@@H]2[C@]1(C)O
33.3

Please look at this molecule and report its TGI: COc1cc2c(cc1OCCCCN1CCN(CC(=O)Nc3ccc(Cl)cc3C(=O)c3ccccc3Cl)CC1)N=CC1CCCN1C2=O (stereo not given)
0.364

Please look at this molecule and report its TGI: O=C1/C(=C\c2ccccc2)C(NC2CCCCC2)c2ccccc21 (stereo not given)
32.7

----------
System: UO-31 renal
TEST PROTOCOL: NCI tumour cell line growth inhibition, 48 h
REPORTED ENDPOINT: log10 TGI (log10 of the value in µM)
Values reflect log10 of reported TGI (µM).

{"columns": ["COMPOUND", "log10 TGI"],
 "data": [
  ["COc1cc2ccnc([C@@H](OC(=O)c3ccccc3)c3ccc(OC)c(OC)c3OC)c2cc1OC", 1.88],
  ["CCC[CH2][Sn]([CH2]CCC)([S]c1cccc2cccnc12)[S]c1cccc2cccnc12", -0.46],
  ["OCCN(CCO)c1ncnc2c1ncn2Cc1ccc(CCl)cc1", 1.49],
  ["NC(N)=N/N=C/c1c(-c2ccc(N)cc2)nc2sccn12", 1.59],
  ["O=C(CCNC12CC3CC(CC(C3)C1)C2)c1ccccc1", 1.89],
  ["CCOC(=O)C(C)(C)Oc1ccc2c(-c3ccccc3)cc(=O)oc2c1", 1.88]
]}

Please look at this compound and report its log10 TGI: CCOC(=O)C1(C/C=C/CBr)Cc2ccccc2C1=O (stereo not given)
0.68

Please look at this compound and report its log10 TGI: CCC(=O)[C@H](C)[C@@H](OC(=O)[C@H](C)CC)[C@H](C)[C@H]1OC(CC)=C(C)C(=O)[C@@H]1C
1.82

Please look at this compound and report its log10 TGI: O=C(Nc1ccc(F)cc1)Nc1ccc(Cl)c([N+](=O)[O-])c1
1.03

----------
Test system: K-562 leukemia
TEST PROTOCOL: NCI tumour cell line growth inhibition, 48 h
REPORTED ENDPOINT: TGI

Here is how some molecules turned out for TGI.
{"columns": ["SMILES REPR", "TESTED SYSTEM", "RESULT"],
 "data": [
  ["C=CCO[C@H]1CO[C@H]2[C@@H]1OC[C@@H]2Oc1ccc(Nc2ccnc(Nc3ccc(O[C@H]4CO[C@H]5[C@@H]4OC[C@@H]5OCC=C)c(Cl)c3)n2)cc1Cl", "K-562 leukemia", "1.9 µM"],
  ["COc1cnc2c(c1)C(=O)c1c-2n(CCCN2CCOCC2)c(=O)c2cc(F)ccc12", "K-562 leukemia", "> 100 µM"],
  ["Cc1cc(N(CCC#N)CCC#N)ccc1N=Nc1ccc(S(N)(=O)=O)cc1", "K-562 leukemia", "> 100 µM"]
]}

Alright, here's another molecule for you.
Please look at this molecule and report its TGI: Nc1c(C(=O)c2cccc(CCS(N)(=O)=O)c2)cnn1-c1ccc(F)cc1
> 25 µM

----------
Tested on: 786-0 renal
TEST PROTOCOL: NCI tumour cell line growth inhibition, 48 h
REPORTED ENDPOINT: TGI

{"columns": ["COMPOUND", "TESTED SYSTEM", "REPORTED ENDPOINT", "RESULT"],
 "data": [
  ["Clc1ccccc1C(SCc1ccccc1)SCc1ccccc1", "786-0 renal", "TGI", "> 100 µM"],
  ["O=c1c2cc([N+](=O)[O-])cnc2sn1-c1ccc([N+](=O)[O-])cc1", "786-0 renal", "TGI", "> 100 µM"],
  ["Cc1c(O)c(O)cc[n+]1C1OC(CO)C(O)C1O (centres undefined)", "786-0 renal", "TGI", "> 100 µM"],
  ["Cc1nc2c(ccc3ncccc32)[nH]1", "786-0 renal", "TGI", "> 100 µM"]
]}

Please look at this compound and report its TGI: O=c1[nH]c(Nc2cccc(CC(F)(F)F)c2)nc2nc[nH]c12
> 100 µM

Please look at this compound and report its TGI: O=c1ccc(-c2ccccc2)n[nH]1
> 100 µM

Please look at this compound and report its TGI: CC1CCc2nc[nH]c(=O)c21 (centres undefined)
> 100 µM

Please look at this compound and report its TGI: CN(C)c1ccc(/C=C\C2=[N+](C)c3ccccc3C2(C)C)cc1
> 41.2 µM

Please look at this compound and report its TGI: CCCC1C(=O)CCc2c(OC)ccc(OC)c21 (centres undefined)
> 100 µM

Please look at this compound and report its TGI: O=C(Nc1ccccc1)c1c(O)[nH]c(=S)[nH]c1=O
92.1 µM

Please look at this compound and report its TGI: C1CN(c2nc3c(nnc4nc(N5CCOCC5)sc43)s2)CCO1
> 100 µM

----------
Test system: XF 498 CNS
TEST PROTOCOL: NCI tumour cell line growth inhibition, 48 h
REPORTED ENDPOINT: TGI

{"columns": ["SMILES REPR", "TESTED SYSTEM", "TGI"],
 "data": [
  ["CCCCC#C[I+]c1ccccc1", "XF 498 CNS", "28.6 µM"],
  ["CC1(C)C(=O)/C=C\\C(=O)C(C)(C)C2=CC=C(O2)C(C)(C)C(=O)/C=C\\C(=O)C(C)(C)C2=CC=C1O2", "XF 498 CNS", "> 100 µM"],
  ["O=C(CCc1nc(=S)[nH][nH]1)Nc1ccc(Cl)c(Cl)c1", "XF 498 CNS", "> 100 µM"]
]}

Please look at this compound and report its TGI: Cc1c(C(=O)CC(=O)C(=O)Nc2ccccc2C(F)(F)F)[n+](=O)c2ccccc2n1[O-]
42 µM

Please look at this compound and report its TGI: CCN(CC)CCSc1c2ccccc2nc2cc(NCC(=O)Nc3ccccc3-c3ccccc3NC(=O)CNc3ccc4c(SCCN(CC)CC)c5ccccc5nc4c3)ccc12
> 100 µM

Please look at this compound and report its TGI: O=C(CCN1CCCCC1)C(=Cc1ccccc1)C(=O)CCN1CCCCC1
> 100 µM

Please look at this compound and report its TGI: CNS(=O)(=O)NNS(=O)(=O)c1ccccc1
> 100 µM

Please look at this compound and report its TGI: CCn1c(C)nn2c(=O)c3ccccc3nc2c1=O
> 100 µM

Please look at this compound and report its TGI: O=C(CC(=O)c1cccc2ccccc12)C(=O)Nc1ccc(Cl)cc1
> 100 µM

Please look at this compound and report its TGI: Cc1c(C(=O)C/C(=N/NC(=O)c2ccccc2O)C(=O)Nc2ccccc2C(C)C)[n+](=O)c2ccccc2n1[O-]
> 100 µM

----------
System: K-562 leukemia
TEST PROTOCOL: NCI tumour cell line growth inhibition, 48 h; in the data active = GI50 below about 0.43 µM; inactive = the rest
Lab note: assign the record to one of active, inactive

Worked examples follow.
{"columns": ["COMPOUND", "CATEGORY LABEL"],
 "data": [
  ["COc1cc2c(cc1OCCCCN1CCN(CC(=O)Nc3ccc(Cl)cc3C(=O)c3ccccc3Cl)CC1)N=CC1CCCN1C2=O (centres undefined)", "active"],
  ["NS(=O)(=O)OC[C@@H]1C[C@@H](n2ccc3c(NC4CCc5ccccc54)ncnc32)C[C@@H]1O (some centres undefined)", "active"],
  ["C=CC(=O)Nc1cc(Nc2ncc(C(=O)OC(C)C)c(-c3cn(C)c4ccccc34)n2)c(OC)cc1N(C)CCN(C)C", "inactive"]
]}

Any idea what this test logged for C[C@@H](Oc1cc(-n2cnc3ccc(CN4CCN(C)CC4)cc32)sc1C(N)=O)c1ccccc1C(F)(F)F ?
active

Any idea what this test logged for Cc1nc2sccn2c1-c1csc(Nc2ccccc2Cl)n1 ?
inactive

Any idea what this test logged for Nc1nc(-n2c(-c3ccccc3)nc3c(Br)cc(Br)cc3c2=O)nnc1-c1cccc(Cl)c1Cl ?
inactive

Any idea what this test logged for CCC[CH2][Sn]([CH2]CCC)([S]c1cccc2cccnc12)[S]c1cccc2cccnc12 ?
active

Any idea what this test logged for COc1cc2c(c(OC)c1OC)-c1ccc(NNC(N)=S)c(=O)cc1[C@@H](NC(C)=O)CC2 ?
active

Any idea what this test logged for Cc1ccnc2c1ccc1c(C)ccnc12 ?
active
